biological target: G3BP1-NTF2 H31A (human (by the printed UniProt entry …, UniProt Q13283, H31A)); assay: ITC
Sequence (Q13283 1-139 H31A): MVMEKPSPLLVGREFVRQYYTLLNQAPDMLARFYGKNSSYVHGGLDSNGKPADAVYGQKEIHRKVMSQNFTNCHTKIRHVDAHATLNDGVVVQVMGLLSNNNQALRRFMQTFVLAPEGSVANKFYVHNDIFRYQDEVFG
pKd: −log10 of the molar value. Where no end group is shown, it is not given here.
MEASURED_ATTRIBUTE: pKd

(1) {GFP}-RQRVQDLMAQMQGPYNFIQDSMLDFENQTLD (domain or fragment) [GFP-Caprin-1^356-386]
(2) MALHSPQYIFGDFSPDEFNQFFVTPRSS (domain or fragment) [GFP-USP10^1-28]
*Q* Lab note: check whether 1 or 2 shows the higher recorded pKd. Write down the label attached to your selection.
*A* 2
(2: 5.52, 1: 4.82)
